Every entry's value here was drawn from ChEMBL document CHEMBL1201862.

- Test system: OVCAR-8
- Procedure Summary: NCI tumour cell line growth inhibition, 48 h
Activity calls are given as the source filed them. No stated cut-off is given here; in the data, active = GI50 up to about 1.1 µM and inactive = higher.
Possible outcomes: active, inactive

>>> assigned_label("CC(=O)N1CCn2c1nc1cc(Cl)ccc12")
"inactive"
>>> assigned_label("COc1ccc2c(c1)CN1C(=N2)CSC1c1c(Cl)cccc1[N+](=O)[O-] (stereo not given)")
"inactive"
>>> assigned_label("Cc1ccc(S(=O)(=O)c2ccc([N+](=O)[O-])o2)cc1")
"active"
>>> assigned_label("COc1ccc(C)cc1-c1cc(Sc2ccccc2)c(-c2cc(C)ccc2OC)o1")
"inactive"
>>> assigned_label("CCOC(=O)C[C@@H]1C2(C=C[C@@]13CO3)OCC(C)(C)CO2")
"inactive"
>>> assigned_label("CC1=NN=C(C)C1/N=N/c1ccc2[nH]c(C)nc2c1")
"inactive"
>>> assigned_label("O=c1[nH][nH]c(=O)n1Cc1ccccc1")
"inactive"
>>> assigned_label("CC(C)(C)C(=O)CC(=O)C(C)(C)C.CC(C)(C)C(=O)CC(=O)C(C)(C)C.[SiH4]")
"inactive"
>>> assigned_label("Cc1cccc(Nc2nc(NNC(=O)Cc3ccccc3)nc(NNC(=O)c3ccncc3)n2)c1")
"inactive"
>>> assigned_label("C=C(C)[C@H]1CC(=O)/C(C)=C\\CC/C(C)=C/CC[C@@]2(C)O[C@@H]2C1")
"inactive"

* * *

- Tested on: DU-145
- Procedure Summary: NCI tumour cell line growth inhibition, 48 h
Calls of active or inactive are those of the source. Rule as the data show it: active = GI50 up to about 1.1 µM and inactive = higher. Where a SMILES comes first, the peptide text is derived from it. The star is where a group is joined. Boc = CC(C)(C)OC(=O)*
Possible outcomes: active, inactive

>>> assigned_label("CCOC(=O)CC1Nc2ccccc2C12CCc1c([nH]c3ccccc13)C2C(=O)OCC (stereo not given)")
"inactive"
>>> assigned_label("CCCc1cc(O)c2c(C)c3[nH]c4ccc(Cl)cc4c3c(C)c2n1")
"inactive"
>>> assigned_label("COC(=O)C1=C(C)NC2(O)C=CC(=O)C3C(=O)N(c4ccccc4)C(=O)C132 (stereo not given)")
"inactive"
>>> assigned_label("O=C1c2cccc([N+](=O)[O-])c2C(=O)N1c1ncn[nH]1")
"inactive"
>>> assigned_label("CN(CCNCc1cn(C)c2c1ccc1ccccc12)CCNCc1cn(C)c2c1ccc1ccccc12")
"inactive"
>>> assigned_label("O=C(CSc1ncccn1)N/N=C/c1ccccc1OCc1ccccc1")
"inactive"
>>> assigned_label("Cc1cc2c(c(C)c1O)C(C)(C)CN2C(=O)C(C)(C)C")
"inactive"
>>> assigned_label("COc1ccc(/C=C2\\N=C3Sc4c([nH]cnc4=O)N3C2=O)cc1")
"inactive"
>>> assigned_label("Cc1ccccc1NC(=O)O/N=C(\\Cl)C(C)C")
"inactive"
>>> assigned_label("Clc1ccc(OCc2nnc(CCCCCCCCc3nnc(COc4ccc(Cl)cc4Cl)n3Nc3ccccc3)n2Nc2ccccc2)c(Cl)c1")
"inactive"
>>> assigned_label("C/C(=N/NC(N)=S)c1ccc[nH]1")
"inactive"
>>> assigned_label("CN(C)c1c(C2CC(O)C(CO)O2)c(=O)c1=O (stereo not given)")
"inactive"
>>> assigned_label("CN(CCCCCl)P(=O)(OCC1=CC(=O)c2ccccc2C1=O)OC[C@H]1O[C@@H](n2cc(F)c(=O)[nH]c2=O)C[C@@H]1O (stereo not given in full)")
"active"
>>> assigned_label("CSc1nc(=S)[nH]c2c1c(C)nn2-c1ccccc1")
"inactive"
>>> assigned_label("CC12CC3c4ccccc4CN1C3(c1ccccc1)OC2=O (stereo not given)")
"inactive"
>>> assigned_label("Nc1c(S(=O)(=O)O)cc(Nc2cccc(S(N)(=O)=O)c2)c2c1C(=O)c1ccccc1C2=O")
"inactive"
>>> assigned_label("Cc1nc(O)c(O)c(CN2CCCCC2)n1")
"inactive"
>>> assigned_label("COc1ccc(C2=C(Cl)C(=O)O/C2=C\\c2ccc(OC)c(Br)c2)cc1Cl")
"inactive"
>>> assigned_label("Clc1nc(Nc2nc3ccccc3[nH]2)nc(Cl)c1Cc1ccccc1")
"inactive"
>>> assigned_label("O=C1/C(=C\\c2cccc(Oc3ccccc3)c2)S(=O)(=O)C(c2ccccc2)N1Cc1ccccc1 (stereo not given)")
"inactive"
>>> assigned_label("COC(=O)C1CC2(C)C=CC1N(C(=O)OCc1ccccc1)C2 (stereo not given)")
"inactive"
>>> assigned_label("O=C1C(Cl)C(c2cc3cc(Br)ccc3nc2Cl)N1c1ccc(Cl)cc1 (stereo not given)")
"inactive"
>>> assigned_label("C[Si](C)(C)c1ccc(-c2c3ccc(-c4cc(Br)cc(Br)c4)nc3nc3nc(-c4cc(Br)cc(Br)c4)ccc23)cc1")
"inactive"
>>> assigned_label("[O-][n+]1ccccc1Sc1nc(Sc2cccc[n+]2[O-])nc(Sc2cccc[n+]2[O-])n1")
"inactive"
>>> assigned_label("Clc1ccc(Cc2nc3cc4ccccc4cc3[nH]2)cc1Cl")
"inactive"
>>> assigned_label("O=C(NC/C(Cl)=C/Cl)Nc1c2ccccc2nc2ccccc12")
"inactive"
>>> assigned_label("Cc1ccc(SC2C(=O)C3CC(OCc4ccccc4)C2(C)C3(C)C)cc1 (stereo not given)")
"inactive"
>>> assigned_label("CCCCCN1C(=O)C(Cc2ccccc2)N=C(c2ccc(O)cc2)c2cc(Cl)ccc21 (stereo not given)")
"inactive"
>>> assigned_label("COC(=O)c1ccccc1/C=C1\\Cc2cc(C)c(C)cc2C1=O")
"inactive"
>>> assigned_label("C=C(C)[C@H]1CC(=O)/C(C)=C\\CC/C(C)=C/CC[C@@]2(C)O[C@@H]2C1")
"inactive"
>>> assigned_label("O=C(Nc1nncs1)NS(=O)(=O)n1c(=S)sc2ccccc21")
"inactive"
>>> assigned_label("O=C1OC(c2ccccc2)=N/C1=C\\c1ccc(Cl)cc1")
"inactive"
>>> assigned_label("O=c1oc2ccccc2c(Nc2ccc3c(c2)S(=O)(=O)c2ccccc2O3)c1[N+](=O)[O-]")
"inactive"
>>> assigned_label("CCCCCCCc1ccc(-c2nnc(/N=N/c3ccc(OCCCCC)cc3)s2)s1")
"inactive"
>>> assigned_label("O=S1(=O)c2cnccc2N=C(NCc2ccccc2)N1c1ccccc1")
"inactive"
>>> assigned_label("CC(CCCCNC(=O)OC(C)(C)C)NC(=O)NC(C)CCCCNC(=O)OC(C)(C)C (stereo not given)")
"inactive"
>>> assigned_label("CCOC(=O)c1c(N2CCCC2)[nH]c(=O)c(C(c2ccc(Cl)c([N+](=O)[O-])c2)c2c(O)c(C(=O)OCC)c(N3CCCC3)[nH]c2=O)c1O")
"inactive"
>>> assigned_label("C=CCCCCOC1C=CC(OC(C)=O)C(COC(C)=O)O1 (stereo not given)")
"inactive"
>>> assigned_label("COC(=O)CNC(=O)C(Cc1ccccc1)NC(=O)C(CCSC)NC(=O)C(Cc1ccc(O)cc1)NC(=O)OC(C)(C)C (stereo not given) (Boc-YMFG-OMe; configuration not given here)")
"inactive"
>>> assigned_label("Cc1nn(C(=O)Cc2ccccc2)c2c1C(c1ccc(/C=C/c3ccccc3)cc1)SC(=N)N2 (stereo not given)")
"inactive"
